Parameter Ki: see the listing below.
# tested_target: UniProt P34972
# Sequence (P34972 whole entry): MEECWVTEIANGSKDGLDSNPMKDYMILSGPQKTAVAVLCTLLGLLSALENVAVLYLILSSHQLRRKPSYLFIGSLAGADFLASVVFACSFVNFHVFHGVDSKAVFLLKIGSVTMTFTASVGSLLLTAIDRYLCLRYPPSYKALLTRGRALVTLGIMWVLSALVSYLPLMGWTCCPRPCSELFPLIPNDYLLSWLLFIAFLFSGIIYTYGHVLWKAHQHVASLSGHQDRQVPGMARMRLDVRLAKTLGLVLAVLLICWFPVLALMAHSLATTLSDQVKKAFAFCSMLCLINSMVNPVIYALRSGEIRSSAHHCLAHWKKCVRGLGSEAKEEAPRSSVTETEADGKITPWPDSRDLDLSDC
# run_description: Displacement of [3H]CP-55940 from human recombinant CB2 receptor expressed in HEK293 cell membranes incubated for 1.5 hrs
Write down the numeric answer in nM and omit the unit.

# count of solved cases: 3
smiles_input	property	assay_value
O=C(c1cc2ccccc2s1)c1cccc2ccccc12	Ki	1000
COc1ccc(C(=O)n2c(-c3ccc(OC)cc3)nc3ccccc32)cc1	Ki	1500
CCc1sc2ccccc2c1C(=O)c1cccc2ccccc12	Ki	700

-- ask Request body: readout Ki, system UniProt P34972, query COc1ccc(Cn2c(-c3ccc(OC)cc3)nc3ccccc32)cc1 . Return the value.
-- reply 700

-- ask Request body: readout Ki, system UniProt P34972, query COc1ccc(C(=O)n2c(C(C)C)nc3ccccc32)cc1 . Return the value.
-- reply 800

-- ask Request body: readout Ki, system UniProt P34972, query CCCc1sc2ccccc2c1C(=O)c1cccc2ccccc12 . Return the value.
-- reply 1000
